test: In vitro inhibition of calcium phosphate crystallization in human plasma (spectrophotometric, 550 nm); format: biochemical; conditions: 0-100 μM compound, 1.5 mM phosphate and 12.5 mM calcium, pH 7.4, 30 min at rt, slope between 6 and 24 min, 30 min, read-out: Relative Potency (EC50)
pEC50: −log10 of the molar value.
measured.endpoint: pEC50

Param item = O=P(O)(O)OC1C(OCCCCCC(F)(F)F)C(OP(=O)(O)O)C(OP(=O)(O)O)C(OP(=O)(O)O)C1OP(=O)(O)O (racemic) [Compound 50] ; retrieve measured pEC50.
5.00 to 5.30

Field entry: O=P(O)(O)OC1C(OCCCCCC(F)(F)F)C(OP(=O)(O)O)C(OP(=O)(O)O)C(OP(=O)(O)O)C1OP(=O)(O)O (centres unmarked) [Compound 36]
≥ 5.30

Hello, the source for this data is patent US20260337211A1, in case you need it.
